Target: human GLP-1 receptor (human, UniProt P43220 24-463)
Experiment: cell-based or functional assay
Numbered stars: 1 amine (or outer) side, 2 acyl side, 3 side chain; on linkers, the order of the positions; unused ones are H or OH. Square brackets hold non-standard residues; d marks the D form. Side chains are listed from the residue outwards. Ends that are not written are not given here. γGlu = O=C(O)[C@H](CCC(=O)[*:2])N[*:1]; X70 = not defined here; x53 = not defined here; x76 = not defined here; Aib = CC(C)(N)C(=O)O
// NB: equality with 6 pM counts as 0; only EC50 hGLP-1R (cAMP) strictly below is 1

binder: HXQGTFTSDLSKQKESXAAQDFIEWLKAGGPSSGAPPPS (dSer at 2; K(γE-x70) at 14; Aib at 17; C-terminal NH2) [SEQ ID NO: 11]
cat: 1
--
binder: HXQGTFTSDLSKQKDSRRAQDFIEWLKNGGPSSGAPPPS (dSer at 2; K(γE-x53) at 14; C-terminal NH[(CH2)14-CH3]) [SEQ ID NO: 108]
cat: 0
--
binder: HXQGTFTSDLSKQKDSRRAQDFIEWLKSGGPSSGAPPPS (dSer at 2; K(γE-x53) at 14; C-terminal NH2) [SEQ ID NO: 128]
cat: 0
--
binder: HXQGTFTSDLSKQKDKRAAQLFIEWLKAXGPSSGAPPPS (Aib at 2; K(γE-x70) at 14; dAla at 29; C-terminal NH2) [SEQ ID NO: 211]
cat: 0
--
binder: HXQGTFTSDLSKQKESRAAQDFIEWLKAGGPSSGAPPPS (dSer at 2; K(γE-x74) at 14; C-terminal NH2) [SEQ ID NO: 55]
cat: 1
--
binder: H[Aib]QGTFTSDLSKQK([γGlu-X70])DEEAARLFIEWLKAGGPSSGAPPPS-NH2 (reading uncertain) [SEQ ID NO: 216]
cat: 1
--
binder: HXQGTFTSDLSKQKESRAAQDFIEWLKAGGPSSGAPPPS (dSer at 2; K(γE-x80) at 14; C-terminal NH2) [SEQ ID NO: 62]
cat: 1
--
binder: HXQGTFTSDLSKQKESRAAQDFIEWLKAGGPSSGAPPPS (dSer at 2; K(γE-γE-x53) at 14; C-terminal NH2) [SEQ ID NO: 49]
cat: 1
--
binder: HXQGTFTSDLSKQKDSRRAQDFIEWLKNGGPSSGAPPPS (dSer at 2; K(γE-x69) at 14; C-terminal NH2) [SEQ ID NO: 90]
cat: 0
--
binder: HXQGTFTSDLSKQKEEEAAKDFIEWLKAGGPSSGAPPPS (dSer at 2; K(γE-x53) at 14; C-terminal NH2) [SEQ ID NO: 17]
cat: 1
--
binder: H[Aib]QGTFTSDLSKQK([γGlu-γGlu-x53])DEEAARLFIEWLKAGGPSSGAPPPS-NH2 (reading uncertain) [SEQ ID NO: 226]
cat: 1
--
binder: HXQGTFTSDLSKQKDSRRAQDFIEWLKNAGPSSGAPPPS (dSer at 2; K(γE-x53) at 14; C-terminal NH2) [SEQ ID NO: 93]
cat: 0
--
binder: HXQGTFTSDLSKQKDSKRAXDFIEWLKAGGPSSGAPPPS (dSer at 2; K(γE-x70) at 14; Aib at 20; C-terminal NH2) [SEQ ID NO: 196]
cat: 0
--
binder: H[Aib]QGTFTSDLSKQK([γGlu-x76])ESRAAQLFIEWLKAGGPSSGAPPPS-NH2 (reading uncertain) [SEQ ID NO: 203]
cat: 0
--
binder: HXQGTFTSDLSKQKDSRRAQDFIEWLKKGGPSSGAPPPS (dSer at 2; K(γE-x53) at 14; C-terminal NH2) [SEQ ID NO: 84]
cat: 0
--
binder: HXQGTFTSDLSKQKESRRAQLFIEWLKAGGPSSGAPPPS (dSer at 2; K(x53) at 14; C-terminal NH2) [SEQ ID NO: 69]
cat: 0
--
binder: HXQGTFTSDLSKQKESRRAQDFIEWLKNAGPSSGAPPPS (dSer at 2; K(γE-x53) at 14; C-terminal NH2) [SEQ ID NO: 95]
cat: 0
--
binder: HXQGTFTSDLSKQKDSRRAQDFIEWLKXGGPSSGAPPPS (dSer at 2; K(γE-x53) at 14; Aib at 28; C-terminal NH2) [SEQ ID NO: 78]
cat: 0
--
binder: HXQGTFTSDLSKQKEEEAAXDFIEWLKAGGPSSGAPPPS (dSer at 2; K(γE-x53) at 14; Aib at 20; C-terminal NH2) [SEQ ID NO: 18]
cat: 1
--
binder: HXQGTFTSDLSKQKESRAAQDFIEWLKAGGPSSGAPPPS (dSer at 2; K(γE-γE-x70) at 14; C-terminal NH2) [SEQ ID NO: 52]
cat: 1
--
binder: H[Aib]QGTFTSDLSKQK(x53)ESKAAQDFIEWLKAGGPSSGAPPPS-NH2 (reading uncertain) [SEQ ID NO: 33]
cat: 0
--
binder: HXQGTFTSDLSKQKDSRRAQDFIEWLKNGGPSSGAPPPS (dSer at 2; K(γE-x53) at 14; C-terminal NH[(CH2-CH2-O)4-CH2-CH2-COOH]) [SEQ ID NO: 104]
cat: 0
--
binder: HXHGTFTSDLSKQKDEEAARLFIEWLKAGGPSSGAPPPS (dSer at 2; K(γE-X70) at 14; C-terminal NH2) [SEQ ID NO: 220]
cat: 1
--
binder: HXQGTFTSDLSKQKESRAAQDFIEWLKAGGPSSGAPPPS (dSer at 2; K(γE-x79) at 14; C-terminal NH2) [SEQ ID NO: 61]
cat: 1
